B1: HDV Ribozyme (parent)
chain: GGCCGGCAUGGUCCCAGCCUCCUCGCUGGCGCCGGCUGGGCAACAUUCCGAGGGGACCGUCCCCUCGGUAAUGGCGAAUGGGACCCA

Variants of: B1
Test: self-cleavage, relative activity (ratio to wild type); higher = more cleavage; co-transcriptional
Recorded self-cleavage by entry

mut	self-cleavage
G40U G74C	0.111
G17A A77G	0.295
A8C U37A	0.128
A45U U46C	0.665
A16U U47G	0.692
C32A C61G	0.248
G53A G74A	0.554
G55C C61G	0.959
C21G U27G	0
